- System: SK-MEL-5
- ASSAY_COMMENT: NCI tumour cell line growth inhibition, 48 h
Active and inactive are the calls of the source. Rule as the data show it: active = GI50 up to about 1.1 µM and inactive = higher.
Labels: class 1 (active), class 0 (inactive)

molecule=C[C@@](Br)(C(=O)O)[C@H](Br)C(=O)O category="class 0"
molecule=CCN(CCCl)c1cc(CN(C)C)cc(NC(=O)c2ccc(C(=O)Nc3cccc(N(CCCl)NN)c3)cc2)c1 category="class 1"
molecule=C/C(Nc1ccc(Cl)cc1Cl)=C1/CCOC1=O category="class 0"
molecule=Cc1cccc2c1CC1(Cc3c(C)cccc3C1=O)C2=O category="class 0"
molecule=N#CC1(C#N)C(C#N)(C#N)C1(C#N)C(N)=O category="class 0"
molecule=C=CCCCN1CCCCC1=S category="class 0"
molecule="C=CC(Br)(CBr)CCC1OC1(C)C (stereo unspecified)" category="class 0"
molecule=O=C(NCCCl)Nc1ccccc1 category="class 0"
molecule=CN(C)P(=O)(/C(N)=N/Nc1ccc([N+](=O)[O-])cc1)N(C)C category="class 0"
molecule=COc1cc(C=C2C(=O)OC(C)(C)OC2=O)cc(OC)c1OC category="class 0"
molecule=C=CCOc1cc(NC(=S)c2ccoc2C)ccc1OC category="class 0"
molecule=O=C(O)/C(Cl)=C(Cl)/C=N/NC(=O)c1cc2ccccc2cc1O category="class 0"
molecule=COc1ccc(/C=C2\N=C(c3ccccc3)N(NC3=NC(=O)CC(=O)N3)C2=O)cc1 category="class 0"
molecule=Nc1ccc2ccc(-c3ccc[nH]3)nc2n1 category="class 0"
molecule=Cc1ccc(S(=O)(=O)N2c3ccccc3[C@H]3CCc4c([nH]c5ccccc45)[C@H]32)cc1 category="class 0"
molecule=Cc1nc2c(sc3nc4ccccc4n32)c(=O)[nH]1 category="class 0"

###

- Tested on: SF-295
- ASSAY_COMMENT: NCI tumour cell line growth inhibition, 48 h
Calls of active or inactive are those of the source. Cut-off read from the data, not from the text of the source: active = GI50 up to about 1.1 µM and inactive = higher.
ASSAY_METRIC: GI50

molecule="N#CC1CCCCCCCCCCC(=O)N(CCCl)C1=O (stereo not given)" tested_target=SF-295 measured_result="> 100 µM (inactive)"
molecule=Fc1ccc2c(c1)SC1=Nc3sc4cc(F)ccc4[n+]3CN12 tested_target=SF-295 measured_result="32.1 µM (inactive)"
molecule=O=C(NCCCl)Nc1ccccc1 tested_target=SF-295 measured_result="> 100 µM (inactive)"
molecule="CC(=O)Nc1ccc(C(=O)NN2C(=O)C(Cl)C2c2ccccc2O)cc1 (stereo not given)" tested_target=SF-295 measured_result="29.1 µM (inactive)"
molecule=O=C1C=C(c2[nH]c3ccccc3c2C2=CC(=O)c3ccccc3C2=O)C(=O)c2ccccc21 tested_target=SF-295 measured_result="36.1 µM (inactive)"

###

- System: IGROV-1
- ASSAY_COMMENT: NCI tumour cell line growth inhibition, 48 h
Activity calls are given as the source filed them. Rule as the data show it: active = GI50 up to about 1.1 µM and inactive = higher.
Labels: y = active, n = inactive

molecule="c1ccc(CN2CCCCC(Sc3ccccc3)CC2)cc1 (stereo not given)" category=n
molecule=CN(C)CCCNc1c(C#N)[n+]([O-])c2cc(Cl)ccc2[n+]1[O-] category=n
molecule=CCC(=O)CC(=O)CCC(=O)Nc1cc(C)ccc1C category=n
molecule="CO[C@H]1[C@@H](O)[C@@H](C)O[C@@H](O[C@H]2CC[C@@]3(C)[C@H](CC[C@@H]4[C@@H]3CC[C@]3(C)[C@@H](C5=CC(=O)OC5)CC[C@]43O)C2)[C@@H]1O [ODOROSIDE H]" category=y
molecule="O=C(CCN1CCN(c2ccccc2)CC1)N1CCc2c([nH]c3ccccc23)C1c1cccnc1 (stereo not given)" category=n
molecule=COc1ccc(Cc2c(N)[nH]c(=O)[nH]c2=O)cc1 category=n
molecule=O=C(N/N=C/c1ccccc1)c1c(F)c(F)c(F)c(F)c1F category=n
molecule=COc1cc(/C=N/N=C(\N)NO)ccc1O category=n
molecule=C=CCCCN1CCCCC1=S category=n
molecule=Nn1c(S)nnc1N/N=C1/C(=O)Nc2ccccc21 category=n
